- study target: LHRH binding sites on EFO-27 human ovarian cancer cells (human)
- experimental protocol: competition with [125I-Tyr8]BRU-2477 on EFO-27 cells
pEC50: −log10 of the molar value. Non-standard residues stand in square brackets, D forms with d. Primed or numbered codes have the meaning given here. *: point of attachment. DO3A10CM(3) = metal chelator group attached at the N-terminus (X in table rows); Bpa = N[C@@H](Cc1ccc(C(=O)c2ccccc2)cc1)C(=O)O; d1Nal = N[C@H](Cc1cccc2ccccc12)C(=O)O; d2Nal = N[C@H](Cc1ccc2ccccc2c1)C(=O)O; DO3A10CM = not defined here; Nicotinoyl = O=C(c1cccnc1)*; azaGly = NNC(=O)O; Sar = CNCC(=O)O
Give rule met when the value for pEC50 is at least 6. Give rule not met when it is less.

| binder | cat |
| --- | --- |
| DO3A10CM-[d2Nal]RWSH[dR]W[Bpa]PGQ-NH2 (reading uncertain) [BRU-2971] | rule met |
| XRWSHXWXPX (DO3A10CM on N-terminus; AA1 Dbpa4; AA6 Darg; AA8 Bpa4; AA10 azaGly-NH2) [BRU-3071] | rule met |
| XRWSHXWXPX (DO3A10CM on N-terminus; AA1 Mednal2; AA6 Darg; AA8 Bpa4; AA10 azaGly-NH2) [BRU-2965] | rule met |
| DO3A10CM-G[d1Nal]HWSH[dR]W[Bpa]P[azaGly]-NH2 (reading uncertain) [BRU-2766] | rule met |
| XHWSHXWXPX (DO3A10CM on N-terminus; AA1 Sar; AA6 Darg; AA8 Cfe4; AA10 azaGly-NH2) [BRU-2725] | rule not met |
| XHWSHXWYPX (HELM PEPTIDE1{[Sar].H.W.S.H.[dR].W.Y.P.[O=C(NN[*:1])[*:2]].[am]}$$$$V2.0; N-terminus assumed; SMILES CNCC(=O)N[C@@H](Cc1c[nH]cn1)C(=O)N[C@@H](Cc1c[nH]c2ccccc12)C(=O)N[C@@H](CO)C(=O)N[C@@H](Cc1c[nH]cn1)C(=O)N[C@H](CCCNC(=N)N)C(=O)N[C@@H](Cc1c[nH]c2ccccc12)C(=O)N[C@@H](Cc1ccc(O)cc1)C(=O)N1CCC[C@H]1C(=O)NNC(N)=O) [BRU-2439] | rule met |
| XRWSHXWXP (DO3A10CM on N-terminus; AA1 Dnal2; AA6 Darg; AA8 Bpa4; AA10 Da15o3pt (Pro9 amide of 1,5-diamino-3-oxapentane)) [BRU-2968] | rule met |
| {DO3A10CM(3)}-[Sar]HWSH[dK](Nicotinoyl)W[Bpa]P[azaGly]-NH2 [BRU-2671] | rule not met |

Cited source for all entries: patent US20120045393A1
